The measured values listed here are drawn from patent US20250296992A1.

Molecular target: T1, human SLITRK6 extracellular domain linked to his tag (human, UniProt Q9H5Y7 27-608)
T1 construct: extracellular domain; also called huSLITRK6; Hu SLITRK6; not shown: his tag
Experiment: BLI binning on huSLITRK6-his; Ab1 = row antibody first, then Ab2 (competitor) = hu14G1-03
EXPERIMENTAL ENDPOINT: epitope binning signal

[[record]]
binder = "hu1H2-03 (antibody, V domains shown, see m20) VH: EVQLVESGGGLVQPGGSLRLSCAASGFTFSDYGLHWVRQAPGKGLEWVSYISSGSSTVYFADTLKGRFTISRDNAKNSLYLQMNSLRAEDTAVYYCTRGTWYFDVWGRGTLVTVSS VL: DIQMTQSPSSLSASVGDRVTITCRTSENIHSYLAWYQQKPGKSPQLLVYNAKTLADGVPSRFSGSGSGTDYTLTISSLQPEDFGTFYCQHFWTTSRTFGGGTKVEIK"
test_result = 0.0077

[[record]]
binder = "Sirtratumab (antibody, V domains shown, Prior-art benchmark antibody; also called Sirtratuzumab) VH: QVQLVESGGGVVQPGRSLRLSCAASGFTFSSYGMHWVRQAPGKGLEWVAVIWYDGSNQYYADSVKGRFTISRDNSKNTLFLQMHSLRAEDTAVYYCARGLTSGRYGMDWGQGTTVTVSS VL: DIVMTQSPLSLPVTPGEPASISCRSSQSLLLSHGFNYLDWYLQKPGQSPQLLIYLGSSRASGVPDRFSGSGSGTDFTLKISRVEAEDVGLYYCMQPLQIPWTFGQGTKVEIK"
test_result = 0.244

[[record]]
binder = "hu1H2-13 (antibody, V domains shown) VH: EVQLVESGGGLVQPGGSLRLSCAASGFTFSDYGLHWVRQAPGKGLEWVAYISSGSSTVYFADTLKGRFTISRDNAKNSLYLQMNSLRAEDTAVYYCTRGTWYFDVWGRGTLVTVSS VL: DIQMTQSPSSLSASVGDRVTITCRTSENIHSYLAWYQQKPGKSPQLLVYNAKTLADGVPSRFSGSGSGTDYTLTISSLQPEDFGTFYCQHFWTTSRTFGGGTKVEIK"
test_result = 0.0231

[[record]]
binder = "phA108 (antibody, V domains shown, From phage display, then full-length construction; Only the variable regions are tied to the name) VH: QVQLVQSGAEVKKPGASVKVSCTASGYIFNDYYLHWVRQAPGQGLEWVGIINPSGGSPVYAQKFQGRVTMTRDTSTNTVYMELSSLRSEDTAVYYCARGMVRGVRLFDYWGQGTLVTVSA VL: EIVLTQSPATLSLSPGERATLSCRASQSVSSYLAWYQQKPGQTPRLLIYDASNRATGVPARFSGSGSGTDFTLTISSLETEDFAVYYCQQRTNWPLTFGGGTKVEIK"
test_result = 0.274

